Where these numbers come from: PubChem BioAssay

# test.description: binders from COS7 lysate, DM2A8 probe, primary screen, torsin A project, cell lysate, small-molecule microarray, fluorescence 635/667 (AID 1065)
# reported.conditions: higher = more signal, COS7 lysate expressing mutant human TOR1A
Where composite z-score equals or exceeds 0.4, the correct label is yes; where it does not, the label is no.

Please review the entries below; each comes with its answer.
compound	category
C=C(/C(=C/C[C@H](OC(C)=O)c1ccc(OCCO)cc1)c1cc(C(=O)OC)ccc1OC)C(C)C	yes
COCCOC(=O)N1C(=O)[C@@]2(c3ccccc31)[C@H](C(=O)N1CCc3cc(OC)c(OC)cc3C1)[C@H]1C(=O)O[C@H](c3ccccc3)[C@H](c3ccccc3)N1[C@@H]2c1ccc(O)cc1	yes

Confirm if composite z-score reported for the compound N#Cc1ccc(C(O)C2C=CC3C(=O)N(c4ccccc4)C(=O)C3N2Nc2ccccc2F)cc1 (stereo not given) is 0.4 or above.
no

Confirm if composite z-score reported for the compound O=C1C2C=CC(C(O)c3ccc4c(c3)OCO4)N(Nc3ccc([N+](=O)[O-])cc3)C2C(=O)N1c1ccccc1 (stereo not given) is 0.4 or above.
yes

Confirm if composite z-score reported for the compound COC(=O)[C@@]1(Cc2ccccc2)[C@H]2c3cc(C(=O)N(C)C)n(CCc4c[nH]c5ccc(O)cc45)c3C[C@H]2CN1C(=O)c1ccccc1 is 0.4 or above.
no
